Test system: U-937 cells
Experiment: MTT cytotoxicity assay, U-937
Format: cell-based
Conditions: Homo sapiens, U-937, 72 h, means ± SEM
Protocol: U-937, HL-60, MOLT-3, NALM-6, and SK-MEL-1 cells were from DSMZ (German Collection of Microorganisms and Cell Cultures, Braunschweig, Germany). U-937/Bcl-2 cells were kindly provided by Dr. Jacqueline Bréard (INSERM U749, Faculté de Pharmacie Paris-Sud, Châtenay-Malabry, France). […] The cytotoxicity of the synthetic compounds was evaluated by colorimetric 3-(4,5-dimethyl-2-thiazolyl-)-2,5-diphenyl-2H-tetrazolium bromide (MTT) assay as previously described. […]
pIC50: −log10 of the molar value.

compound	targetEntity	pIC50
O=C(/C=C/c1ccc(N=C(Nc2ccccc2)N2CCOCC2)cc1)c1c(O)cccc1OCc1ccccc1	U-937 cells	5.07
Cc1ccc(S(=O)(=O)NC(=Nc2ccc(/C=C/C(=O)c3c(O)cccc3OCc3ccccc3)cc2)N(C)c2ccccc2)cc1	U-937 cells	5.02
CC(C)N(/C(=N/c1ccc(/C=C/C(=O)c2c(O)cccc2OCc2ccccc2)cc1)Nc1ccccc1)C(C)C	U-937 cells	4.97
Cc1ccc(S(=O)(=O)NC(=Nc2ccc(/C=C/C(=O)c3c(O)cccc3OCc3ccccc3)cc2)N(C(C)C)C(C)C)cc1	U-937 cells	4.73
Cc1ccc(S(=O)(=O)NC(=Nc2ccc(/C=C/C(=O)c3c(O)cccc3OCc3ccccc3)cc2)NC(C)C)cc1	U-937 cells	4.94
COc1cccc2c1C(=O)c1c(O)c3c(c(O)c1C2=O)C[C@@](O)(C(=O)CO)C[C@@H]3O[C@H]1C[C@H](N)[C@H](O)[C@H](C)O1 [Doxorubicin, reference compound]	U-937 cells	7.00

====

tested on: NALM-6 cells; test: MTT cytotoxicity assay, NALM-6; type: cell-based, human; details: 72 h, MTT, means ± SEM
reportedMetric: IC50 (µM)

molecule	reportedMetric	unitName	recordedNumber
O=C(/C=C/c1ccc(N=C(Nc2ccccc2)N2CCCCC2)cc1)c1c(O)cccc1OCc1ccccc1 [Compound 6i]	IC50	µM	10.8

====

Listed here: items and their measured pIC50.
tested on: U-937 cells; test: MTT cytotoxicity assay, U-937; type: cell-based; conditions: Homo sapiens, U-937, 72 h, means ± SEM
pIC50: −log10 of the molar value.
reportedMetric: pIC50

compound	reportedMetric	operator	recordedNumber
[N-]=[N+]=Nc1ccc(/C=C/C(=O)c2c(O)cccc2OCc2ccccc2)cc1 [Compound 3]	pIC50	<	4.52
COc1cc([C@@H]2c3cc4c(cc3[C@@H](O[C@@H]3O[C@@H]5CO[C@@H](C)O[C@H]5[C@H](O)[C@H]3O)[C@H]3COC(=O)[C@H]23)OCO4)cc(OC)c1O [Etoposide, reference compound]	pIC50	=	5.74
CCCCCCCCCCCCCCCCCCNC(=Nc1ccc(/C=C/C(=O)c2c(O)cccc2OCc2ccccc2)cc1)NS(=O)(=O)c1ccc(C)cc1 [Compound 6g]	pIC50	<	4.52
Cc1ccc(S(=O)(=O)NC(=Nc2ccc(/C=C/C(=O)c3c(O)cccc3OCc3ccccc3)cc2)N2CCOCC2)cc1 [Compound 6e]	pIC50	=	5.27
Cc1ccc(S(=O)(=O)NC(=Nc2ccc(/C=C/C(=O)c3c(O)cccc3OCc3ccccc3)cc2)N2CCCCC2)cc1 [Compound 6d]	pIC50	<	4.52
CN1CCN(C(=Nc2ccc(/C=C/C(=O)c3c(O)cccc3OCc3ccccc3)cc2)Nc2ccccc2)CC1 [Compound 6k]	pIC50	=	4.85
Cc1ccc(S(=O)(=O)NC(=Nc2ccc(/C=C/C(=O)c3c(O)cccc3OCc3ccccc3)cc2)N2CCN(C)CC2)cc1 [Compound 6f]	pIC50	=	5.80

The measurements presented in this section are drawn from paper PMC9779571.
